assay.system: T1, Recombinant human CD4 (R&D Systems, Cat. 10327-CD) (human, UniProt P01730 26-390, limits assumed)
T1 construct: Bought reagent; also called huCD4
measurement.description: BLI Octet, non-clonal supernatant on AMC sensor, 100 nM human CD4, 1:1 local fit;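 also: Single-concentration kinetics per supernatant, with the 1:1 model fitted across both the association and dissociation phases of the sensorgram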
measurement.label: pKd
Quick note: pKd means taking -log10 of the concentration in moles per liter.

Q) Consider the binder 75110_01A06A (antibody, V domains shown, Tested as non-clonal AlivaMab Mouse Kappa hybridoma supernatant, captured by anti-mouse IgG Fc sensor) VH: EVQLVESGGGLVQPGGSLRLSCAASGFTFSSYWMSWVRQAPGKGLEWVANINEDGNEKYYVDSVKGRLTISRDNAKNSLYLQMNSLRAEDTAVYFCAREGGQWLSLDYWGQGALVTVSS VL: DIQMTQSPSSVSASVGDRVSITCRASQGISSWLAWYQQKPGKAPKILIYGASSLQSGVPSRFSGSGSGTDFTLTISSLQPEDFATYYCQQANSFPWTFGQGTKVEIK and give its measured pKd.
A) 7.96

Q) Consider the binder 75110_13P21A (antibody, V domains shown, Tested as non-clonal AlivaMab Mouse Kappa hybridoma supernatant, captured by anti-mouse IgG Fc sensor) VH: QVQLQQWGAGLLKPSETLSLTCAVSGGSFSGYYWSWIRQPPGKGLEWIGEINHSGSTNCNPSLKSRVTISVDTSNNQFSLKLSSVTAADTAVYYCARVLNYFDYWGQGTLVTVSS VL: DIQMTQSPSSVSASVGDRVTITCRASPDIANWLAWYQQKPGKAPELLIYAASSLQSGVPSRFSGSGSGTDFTLTISSLQPEDFATYFCQQANSFPLTFGGGTKVESK and give its measured pKd.
A) 8.69

Q) Consider the binder 75110_09N20A (antibody, V domains shown, Tested as non-clonal AlivaMab Mouse Kappa hybridoma supernatant, captured by anti-mouse IgG Fc sensor) VH: EVQLVESGGGLVQPGGSLRLSCAASGFTFSSYWMSWVRQAPGKGLEWVANINEDGSEKYYVDSVKGRFTISRDNAKNSLYLQMNSLRAEDTAVYYCVREGGQWLALDYWGQGTLVTVSS VL: DIQMTQSPSSVSASVGDRVTITCRASQGISSWLAWYQQKPGKAPKLLIYAASSLQSGVPSSFSGSGSGTDFTLTINSLQPEDFATYYCQQANSFPWTFGQGTKVAIK and give its measured pKd.
A) 7.82

Q) Consider the binder 75110_01D24A (antibody, V domains shown, Tested as non-clonal AlivaMab Mouse Kappa hybridoma supernatant, captured by anti-mouse IgG Fc sensor) VH: QVQLQQWGAGLLKPSETLSLTCAVYGGSFSGYYWSWIRQPPGKGLEWIGEINHSGSTNYNPSLKSRVTISVDTSENQFSLKLNSVTAADTAVYYCARLVNWFDPWGQGTLVTVSS VL: EIQMTQSPSSVSASVGDRVTITCRASQDISNWLAWYQQKPGKAPNLLIFAASSLQTGVPSRFSGSGSGTDFTLTISSLQPDDFATYYCQQANSFPYSFGQGTNLGIK and give its measured pKd.
A) 8.96
